Tested on: human TOR (Homo sapiens, UniProt P42345)
Construct: FLAG
Experimental details: human TOR kinase assay with purified enzyme, DELFIA format;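 note: 2 h kinase reaction at room temperature, phosphorylation of S6K at T389 detected with a europium-labelled antibody after plate capture, DMSO vehicle as control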
Particulars: FLAG-TOR, 100 μM ATP, His6-S6K substrate
Classify: t when IC50 is strictly less than 2000 nM; f when IC50 is not.

Use these answered entries as a reference point.
### Prompt Is IC50 strictly under 2000 nM for the entry OCc1cccc(-c2nc(N3CCOCC3)c3[nH]cc(CN4CCN(c5ncccn5)CC4)c3n2)c1 [Example 14] ?
### Response f

### Prompt Please state whether IC50 is below 2000 nM for Oc1cccc(-c2nc(N3CCOCC3)c3[nH]cc(C4CCN(Cc5ccc(F)cc5Cl)CC4)c3n2)c1 [Example 34]
### Response t

### Prompt Quick check: does O=C(NCc1ccco1)Nc1cccc(-c2nc(N3CCOCC3)c3[nH]ccc3n2)c1 [Example 43] have IC50 under 2000 nM?
### Response f

---
### Prompt Lab note: IC50 threshold 2000 nM. Does this compound come in strictly under it? COC(=O)Cn1ccc2nc(-c3cccc(CO)c3)nc(N3CCOCC3)c21 [Example 46]
### Response f

### Prompt Please check: IC50 for Oc1cccc(-c2nc(N3CCOCC3)c3[nH]cc(C4CCN(Cc5ncc[nH]5)CC4)c3n2)c1 [Example 28] , strictly under 2000 nM or not?
### Response f

### Prompt Item CCN(CC)Cc1c[nH]c2c(N3CCOCC3)nc(-c3cccc(O)c3)nc12 [Example 19] : IC50 beneath 2000 nM, strictly?
### Response f

### Prompt State whether 2000 nM exceeds IC50 recorded for c1ccc(COc2cccc(-c3nc(N4CCOCC4)c4[nH]ccc4n3)c2)cc1 [Example 1] .
### Response f

### Prompt Please let me know if OCc1cccc(-c2nc(N3CCOCC3)c3[nH]cc(C4=CCN(Cc5ccccc5)CC4)c3n2)c1 [Example 25] shows IC50 below 2000 nM.
### Response t
